meta.source: paper PMC4627826

biological target: inducible nitric oxide synthase (iNOS) (Homo sapiens, UniProt P35228); test: iNOS inhibition assay (Nitric Oxide Synthase Assay Kit, NO production); details: mean ± SD (n = 3); NA = no activity; read-out: IC50, inhibitory effect on iNOS activity
Observed property: pIC50
Conceptually, pIC50 converts a concentration in mol/L into minus its log10.

The reported pIC50 of the molecule COc1cc(O)cc(CCc2cccc3ccccc23)c1 was 2.92

The reported pIC50 of the molecule Oc1cc(O)cc(CCc2cc(O)cc(O)c2)c1 was 3.36

The reported pIC50 of the molecule COc1cc(O)cc(CCc2ccc(O)c(OC)c2)c1 [Compound 14f] was 3.17

The reported pIC50 of the molecule COc1cc(O)cc(CCc2ccc(O)c(OC)c2)c1 [Extractive gigantol, reference compound] was 4.49

The reported pIC50 of the molecule COc1cc(CCc2cccc(OC)c2O)ccc1O [Compound 14b] was 3.36

----------
biological target: aldose reductase (AR) (Homo sapiens); construct: purchased Prospec-TanyTechnogene Ltd. (Israel); assay: AR inhibition assay (NADPH absorbance decrease at 340 nm, DL-glyceraldehyde substrate); assay type: biochemical; details: mean ± SD (n = 3); NA = no activity; read-out: IC50, inhibitory effect on AR activity
Observed property: pIC50
Conceptually, pIC50 converts a concentration in mol/L into minus its log10.

pIC50 on aldose reductase (AR) (Homo sapiens) for COc1ccc(CNc2nc3ccccc3s2)c(O)c1 [Compound 17c] is 3.61

pIC50 on aldose reductase (AR) (Homo sapiens) for COc1ccc(CCNC(=O)Cc2ccc(O)cc2)cc1OC is 4.26

pIC50 on aldose reductase (AR) (Homo sapiens) for COc1cc(O)cc(CCc2cccc3ccccc23)c1 is 4.51

pIC50 on aldose reductase (AR) (Homo sapiens) for COc1cc(CCc2ccc(O)c(O)c2)ccc1O [Compound 14c] is 3.27

pIC50 on aldose reductase (AR) (Homo sapiens) for COc1cc(CCc2ccc(O)c(OC)c2)cc(OC)c1 [Compound 14d] is 4.41

pIC50 on aldose reductase (AR) (Homo sapiens) for COc1cc(O)cc(CCc2ccc(O)c(OC)c2)c1 [Extractive gigantol, reference compound] is 2.60

pIC50 on aldose reductase (AR) (Homo sapiens) for COc1cc(CCc2cc(OC)cc(OC)c2)cc(OC)c1 is 3.46

pIC50 on aldose reductase (AR) (Homo sapiens) for COc1cc(CCc2cc(OC)c(O)c(OC)c2)ccc1O [Compound 14a] is 4.76

pIC50 on aldose reductase (AR) (Homo sapiens) for COc1cc(CCc2cccc(OC)c2O)ccc1O [Compound 14b] is 3.90

----------
Kindly state melting point for each of the entries shown.

The reported melting point of the compound CN(C)c1ccc(CCc2cc(O)cc(O)c2)cc1 [Compound 8] was 152.5 to 154.1 °C

The reported melting point of the compound COc1cc(O)cc(CCc2cccc3ccccc23)c1 [Compound 10] was 103.9 to 106.7 °C

The reported melting point of the compound COc1ccc(CNc2nc3ccccc3s2)c(O)c1 [Compound 17c] was 184.3 to 185.7 °C

The reported melting point of the compound Oc1cc(O)cc(CCc2cc(O)cc(O)c2)c1 [Compound 5] was 245.9 to 248.1 °C

The reported melting point of the compound COc1ccc(CCNC(=O)Cc2ccc(O)cc2)cc1OC [Compound 25] was 151.7 to 153.2 °C

The reported melting point of the compound COc1cc(CCc2cc(OC)cc(OC)c2)cc(OC)c1 [Compound 4, 1,2-bis(3,5-dimethoxyphenyl)ethane] was 104.6 to 107.9 °C

The reported melting point of the compound COc1ccc(CCNCc2ccc(O)cc2)cc1OC [Compound 17b] was 116.7 to 118.6 °C

----------
target: aldose reductase (AR) (Homo sapiens, UniProt P15121); construct: purchased Prospec-TanyTechnogene Ltd. (Israel); assay: AR inhibition assay (NADPH absorbance decrease at 340 nm, DL-glyceraldehyde substrate); format: biochemical; settings: mean ± SD (n = 3); NA = no activity; read-out: IC50, inhibitory effect on AR activity
Param label: returns criterion met when IC50 < 20 µM, returns criterion not met otherwise, including exact equality.

## Task Bench note: check whether Oc1cc(O)cc(CCCc2ccc(F)cc2)c1 [Compound 21] shows IC50 below 20 µM
## Result criterion not met

## Task Bench note: check whether COc1cc(CCc2cc(Cl)ccc2O)ccc1O [Compound 14e] shows IC50 below 20 µM
## Result criterion not met

## Task Bench note: check whether Oc1cc(O)cc(CCc2cc(O)cc(O)c2)c1 [Compound 5] shows IC50 below 20 µM
## Result criterion not met

## Task Bench note: check whether Cc1ccc(S(=O)(=O)Nc2ccc(O)cc2)cc1 [Compound 23] shows IC50 below 20 µM
## Result criterion met

## Task Bench note: check whether COc1cc(O)cc(CCc2ccc(O)c(OC)c2)c1 [Compound 14f] shows IC50 below 20 µM
## Result criterion not met

## Task Bench note: check whether CN(C)c1ccc(CCc2cc(O)cc(O)c2)cc1 [Compound 8] shows IC50 below 20 µM
## Result criterion not met
